Target: T1R1/T1R3 receptor (Felis catus)
Assay: Activation of T1R1/T1R3 receptor by transmembrane compounds alone or with alanine, IMP, GMP, phenylalanine; HEK293 cells, calcium fluorescence (Example 5)
Type: cell-based, cat
Settings: read-out: EC50 +Alanine (20 mM) + IMP (0.2 mM); +Alanine (20 mM) + IMP (0.2 mM)
OBSERVATION_TYPE: EC50 (µM)
Expressed in µM, but write only the number.

Enquiry: GET /values?readout=EC50&item= O=C(CN1C(=O)C(=O)N(Cc2ccccc2)C1=O)c1ccccc1
Return: 330

###

Molecular target: T1R1/T1R3 receptor (Felis catus)
Assay: Activation of T1R1/T1R3 receptor by transmembrane compounds and nucleotide derivatives, conducted as in Examples 1, 2 and 5 (Example 7)
Assay type: cell-based, cat
Conditions: +IMP (0.2 mM)
Lab note: compare Thres +IMP (0.2 mM) with 0.1 mM, writing Yes if less and No if equal or more.

[
  {
    "MOLECULE": "C[C@H](N)C(=O)O [L-Alanine, reference compound]",
    "ASSIGNED_CLASS": "No"
  },
  {
    "MOLECULE": "CCOC(=O)NC(=O)C(c1ccccc1)c1ccccc1 [Ro 01-6128, reference compound]",
    "ASSIGNED_CLASS": "Yes"
  },
  {
    "MOLECULE": "N[C@@H](CS)C(=O)O [L-Cysteine, reference compound]",
    "ASSIGNED_CLASS": "No"
  },
  {
    "MOLECULE": "N[C@@H](CO)C(=O)O [L-Serine, reference compound]",
    "ASSIGNED_CLASS": "No"
  }
]

Enquiry: Bench note: check whether O=C(NCCc1ccccc1)c1ccc2c(c1)OCO2 shows Thres +IMP (0.2 mM) below 0.1 mM
Return: Yes

Enquiry: Bench note: check whether Nc1ccccc1C(=O)NCCc1ccccc1 [2-amino-N-phenethylbenzamide] shows Thres +IMP (0.2 mM) below 0.1 mM
Return: Yes

Enquiry: Bench note: check whether N[C@@H](Cc1ccc(O)cc1)C(=O)O [L-Tyrosine, reference compound] shows Thres +IMP (0.2 mM) below 0.1 mM
Return: No

Enquiry: Bench note: check whether O=C(NCCc1c[nH]c2ccccc12)c1cccnc1 [N-(2-(1H-indol-3-yl)ethyl)nicotinamide, N-(2-(1H-Indol-3-yl)ethyl)nicotinamide] shows Thres +IMP (0.2 mM) below 0.1 mM
Return: Yes

Enquiry: Bench note: check whether O=C(O)C1CCCCC1C(=O)Nc1cc(Cl)cc(Cl)c1 (centres unmarked) shows Thres +IMP (0.2 mM) below 0.1 mM
Return: Yes

Enquiry: Bench note: check whether N[C@@H](Cc1c[nH]cn1)C(=O)O [L-Histidine, L-histidine, reference compound] shows Thres +IMP (0.2 mM) below 0.1 mM
Return: No

Enquiry: Bench note: check whether COC(=O)[C@H](Cc1ccccc1)NCc1ccccc1 shows Thres +IMP (0.2 mM) below 0.1 mM
Return: Yes

Enquiry: Bench note: check whether O=C(NCCc1ccccc1)c1cccnc1 [N-phenethylnicotinamide] shows Thres +IMP (0.2 mM) below 0.1 mM
Return: Yes

Enquiry: Bench note: check whether O=P(O)(O)OP(=O)(O)OP(=O)(O)OC[C@H]1O[C@@H](n2cnc3c(Cl)ncnc32)[C@H](O)[C@@H]1O shows Thres +IMP (0.2 mM) below 0.1 mM
Return: Yes

Enquiry: Bench note: check whether O=C(NCCc1ccccc1)c1ccccc1 [N-phenethylbenzamide] shows Thres +IMP (0.2 mM) below 0.1 mM
Return: Yes
